Assay: qHTS assay for small molecule disruptors of the mitochondrial membrane potential (AID 720635)
Conditions: HepG2 mitochondrial membrane potential, Mito-MPS dye ratio; series mostly up to 83.2 µM
Records with an inconclusive call do not appear. Activity calls are given as the source filed them. The call rests on the fitted dose curve; in most records, active means well fitted inhibition curve with a large enough effect in the signal ratio in the repeat runs; inconclusive means weak or mixed curves, or effect the other way; inactive means flat fitted curve, though single readings scatter; the % refers to the signal ratio.
Return exactly one item of T for active, F for inactive

INSERT INTO assay_data (compound, assigned_label) VALUES
  ('Cc1cc(C)cc(C)c1', 'F'),
  ('C=C(C)C(=O)OCC1CO1 (stereo not drawn)', 'F'),
  ('CNC(=O)Oc1cccc2c1OC(C)(C)O2', 'F'),
  ('CC(C)N(C(=O)SCC(Cl)=C(Cl)Cl)C(C)C', 'T'),
  ('OCC(O)CO', 'F'),
  ('CN(C)c1ccc(C(=O)c2ccc(N(C)C)cc2)cc1', 'T');

Lookup: What is the recorded call for this compound in the test? O=C1C=CC(=O)C=C1
Found: F

Lookup: What is the recorded call for this compound in the test? CCOc1cc(C=O)ccc1O
Found: F
